Tested on: COLO 205 colon
PROCEDURE DETAILS: NCI tumour cell line growth inhibition, 48 h

>  <COMPOUND>
C=C(C)[C@@H]1CC[C@]2(CO)CC[C@]3(C)[C@H](CC[C@@H]4[C@@]5(C)CC[C@H](NCO)C(C)(C)[C@@H]5CC[C@]43C)[C@@H]12

>  <GI50>
0.898 µM

$$$$
>  <COMPOUND>
CN1CCN(c2ccc3nc(-c4ccc(OCCCCN5CCN(CCCCN6C(=O)c7cccc8cccc(c78)C6=O)CC5)cc4)[nH]c3c2)CC1

>  <GI50>
96.8 µM

$$$$
>  <COMPOUND>
COc1ccc2c(c1)/C(=N/OC(C)=O)c1c-2cnc2ccccc12

>  <GI50>
26.5 µM

$$$$
>  <COMPOUND>
CCOC(=O)c1c(C)n(Cc2ccccc2)c2c1cc1oc(=O)c(=O)n3cnc2c13

>  <GI50>
12.8 µM

$$$$
>  <COMPOUND>
COc1ccc(C2=NC(c3ccc(Cl)cc3)C(c3ccc(Cl)cc3)N2C(=O)N2CCNC(=O)C2)c(OC(C)C)c1 (stereo not given)

>  <GI50>
3.31 µM

$$$$
